assay: qHTS of pediatric cancer cell lines to identify multiple opportunities for drug repurposing: Primary screen for NB-EBc1 cells (AID 1347095); conditions: NB-EBc1 neuroblastoma viability, CellTiter-Glo luminescence, 48 h; series mostly up to 46 µM
Results filed as inconclusive are left out. The source made the active and inactive calls. Calls follow the shape of the dose curve; as a rule, active = well fitted cell-killing curve with a large enough effect; inconclusive = small, poorly fitted or top-dose-only effect; inactive = no such curve, though single readings can be large or run the other way.
experimentalEndpoint: outcome

# structureSmilesString, experimentalEndpoint, endpointResult
measured = [
    ("O=C1OCCN1/N=C/c1ccc([N+](=O)[O-])o1", "outcome", "inactive"),
    ("Cc1onc(-c2c(Cl)cccc2Cl)c1C(=O)N[C@@H]1C(=O)N2[C@@H]1SC(C)(C)[C@@H]2C(=O)O", "outcome", "inactive"),
    ("COC(=O)[C@@H]1CC2=CC(=O)CC[C@]2(C)[C@@]23O[C@@H]2C[C@@]2(C)[C@@H](CC[C@@]24CCC(=O)O4)[C@H]13", "outcome", "inactive"),
]
